System: SW-620 colon
experiment_description: NCI tumour cell line growth inhibition, 48 h
Exercise: for every item that follows, state its recorded TGI.

Item Cc1cc(-c2nc3sc(C)cn3c2/C=N/N=C(N)N)c(C)s1 was tested on SW-620 colon; the reported TGI is 18.4 µM

Item O=C1CCC2(c3ccc(Cl)cc3)Nc3ccccc3N12 (stereo unspecified) was tested on SW-620 colon; the reported TGI is > 100 µM

Item CC(=O)OCC12CC(CC1OC(C)=O)c1ccccc12 (stereo unspecified) was tested on SW-620 colon; the reported TGI is > 100 µM

Item O=C(COc1ccccc1)NNc1ccccc1 was tested on SW-620 colon; the reported TGI is > 300 µM

Item CC(=O)Nc1ccc(S(=O)(=O)c2nnc(NC(C)=O)s2)cc1 was tested on SW-620 colon; the reported TGI is > 100 µM

Item N#Cc1ccc(C2ON=C(c3ccccc3)N2C23CC4CC(CC(C4)C2)C3)cc1 (stereo unspecified) was tested on SW-620 colon; the reported TGI is > 10 µM
